Test system: DU-145 prostate cancer cell line
test_name: In vitro anticancer activity, SRB assay, DU-145
Type: cell-based
measurement_context: Homo sapiens, 48 h, NA = Not Active
measured_metric: IC50 (µM)

Below, each entry is followed by its recorded IC50 result.
Req: Missing value: IC50, DU-145 prostate cancer cell line, entry COC(=O)C[C@H]1[C@]2(C)C3=C(C)[C@H](c4ccoc4)C[C@@H]3O[C@@H]2[C@@H]2OC(=O)[C@]3(C)CCC(=O)[C@@]1(C)C23 (some centres unmarked) . Fill in?
Resp: 75.1

Req: Checklist item: IC50 tested on DU-145 prostate cancer cell line, entry COC(=O)C[C@H]1[C@]2(C)C3=C(C)[C@H](c4ccoc4)C[C@@H]3O[C@@H]2[C@@H]2OC(=O)[C@]3(C)C(C(O)c4ccc([N+](=O)[O-])cc4)=CC(=O)[C@@]1(C)C23 (some centres unmarked) , value?
Resp: 9.31

Req: IC50 of COC(=O)C[C@H]1[C@]2(C)C3=C(C)[C@H](C4=CC5OC4C(C(=O)OC)=C5C(=O)OC)C[C@@H]3O[C@@H]2[C@@H]2OC(=O)[C@]3(C)C=CC(=O)[C@@]1(C)C23 (some centres unmarked) on DU-145 prostate cancer cell line?
Resp: 0.58

(I) COC(=O)C[C@H]1[C@]2(C)C3=C(C)[C@H](c4ccoc4)C[C@@H]3O[C@@H]2[C@@H]2OC(=O)[C@]3(C)C4CC4C(=O)[C@@]1(C)C23 (some centres unmarked)
(II) COC(=O)C[C@H]1[C@]2(C)C3=C(C)[C@H](c4ccoc4)C[C@@H]3O[C@@H]2[C@@H]2OC(=O)[C@]3(C)C(OCc4ccccc4)CC(=O)[C@@]1(C)C23 (some centres unmarked)
Req: Which gives the smaller IC50 number: I or II ? State the label of the item chosen.
Resp: II

----------
Tested on: PC3 prostate cancer cell line
test_name: In vitro anticancer activity, SRB assay, PC3
Type: cell-based
measurement_context: 48 h, NA = Not Active
measured_metric: IC50 (µM)

Examples with their reported IC50 follow.
Req: Item under review: COC(=O)C[C@H]1[C@]2(C)C3=C(C)[C@H](c4ccoc4)C[C@@H]3O[C@@H]2[C@@H]2OC(=O)[C@]3(C)C(C(O)c4ccc([N+](=O)[O-])cc4)=CC(=O)[C@@]1(C)C23 (stereo partly shown) . Reported IC50?
Resp: 9.08

Req: State the recorded IC50 for this entry: COC(=O)C[C@H]1[C@]2(C)C3=C(C)[C@H](c4ccoc4)C[C@@H]3O[C@@H]2[C@@H]2OC(=O)[C@]3(C)C4CC4C(=O)[C@@]1(C)C23 (stereo partly shown)
Resp: 20.6

Req: Param item = COC(=O)C[C@H]1[C@]2(C)C3=C(C)[C@H](c4ccoc4)C[C@@H]3O[C@@H]2[C@@H]2OC(=O)[C@]3(C)C(Nc4ccccc4)CC(=O)[C@@]1(C)C23 (stereo partly shown) ; retrieve measured IC50.
Resp: 21

Req: Entry COC(=O)C[C@H]1[C@]2(C)C3=C(C)[C@H](c4ccoc4)C[C@@H]3O[C@@H]2[C@@H]2OC(=O)[C@]3(C)CCC(=O)[C@@]1(C)C23 (stereo partly shown) has what IC50?
Resp: 79.1

Req: Return reported IC50; argument: COC(=O)C[C@H]1[C@]2(C)C3=C(C)[C@H](C4=CC5OC4C(C(=O)OC)=C5C(=O)OC)C[C@@H]3O[C@@H]2[C@@H]2OC(=O)[C@]3(C)C=CC(=O)[C@@]1(C)C23 (stereo partly shown)
Resp: 1.4

(P) COC(=O)C[C@H]1[C@]2(C)C3=C(C)[C@H](c4ccoc4)C[C@@H]3O[C@@H]2[C@@H]2OC(=O)[C@]3(C)C(OCc4ccccc4)CC(=O)[C@@]1(C)C23 (stereo partly shown)
(Q) COC(=O)C[C@H]1[C@]2(C)C3=C(C)[C@H](c4ccoc4)C[C@@H]3O[C@@H]2[C@@H]2OC(=O)[C@]3(C)C(Sc4cccc(N)c4)CC(=O)[C@@]1(C)C23 (stereo partly shown)
Req: Quick check, higher IC50 between P and Q ? Provide the label of your selected option as the answer.
Resp: Q
(Q: 65.3 µM, P: 1.01 µM)

----------
Test system: Pan-02 pancreatic cancer cell line
test_name: In vitro anticancer activity, SRB assay, Pan-02
Type: cell-based
measurement_context: Pan02, 48 h
measured_metric: IC50 (nM)
Only the number, expressed in nM, is required.

Req: // lookup IC50 for COC(=O)C[C@H]1[C@]2(C)C3=C(C)[C@H](C4=CC5OC4C(C(=O)OC)=C5C(=O)OC)C[C@@H]3O[C@@H]2[C@@H]2OC(=O)[C@]3(C)C=CC(=O)[C@@]1(C)C23 (stereo partly shown)
Resp: 520
